Target: Calmodulin-1 (Homo sapiens)
Assay: small molecules binding calmodulin-1 with EGTA – biochemical, small-molecule microarray, Cy5-labelled CALM1, profiling panel (AID 1111);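 further: labelled calmodulin applied in Tris saline Tween buffer holding calcium plus EGTA and DTT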
Details: Cy5-CALM1 binding fluorescence, higher = more signal
Parameter: composite z-score. Scope: all listed entries.

{"Molecule": "O=C1O[C@@H](c2ccccc2)[C@@H](c2ccccc2)N2[C@@H](c3ccc(O)cc3)[C@]3(C(=O)Nc4ccccc43)[C@@H](C(=O)NC[C@H](O)c3ccccc3)[C@H]12", "composite z-score": 0.843}
{"Molecule": "O=C(N1CCCCC1)[C@]1(CCS(=O)(=O)c2ccccc2)N=C(c2ccc(OCCCO)cc2)O[C@@H]1c1ccccc1", "composite z-score": 1.91}
{"Molecule": "CN1C(=O)C2C(C1=O)C1C=C(c3ccc(CO)cc3)C2C(C2CC2)N1Cc1cc2c(cc1Br)OCO2 (stereo unspecified)", "composite z-score": 1.68}
{"Molecule": "CO[C@H]1O[C@H](CO)[C@@H](OC(=O)Nc2cccc(F)c2)[C@H](OC(=O)Nc2ccccc2-c2ccccc2)[C@@H]1OC(=O)Nc1ccccc1-c1ccccc1", "composite z-score": 1.95}
{"Molecule": "Cc1ccc(S[C@]2(C(=O)NCC(C)C)CC(=O)N(Cc3ccccc3)[C@@H]2c2ccc(CO)cc2)cc1", "composite z-score": -0.624}
{"Molecule": "COCCOC(=O)N1C(=O)[C@@]2(c3cc(C#Cc4ccc(OC)cc4)ccc31)[C@H](c1ccc(OCCO)cc1)N1[C@H](c3ccccc3)[C@H](c3ccccc3)OC(=O)[C@H]1[C@@H]2C(=O)N1CCc2cc(OC)c(OC)cc2C1", "composite z-score": 0.784}

----------
Biological target: Carbonic anhydrase 2 (Homo sapiens)
Assay: compounds binding carbonic anhydrase 2 – biochemical, small-molecule microarray, Alexa647-labelled CAII, profiling panel (AID 1122)
Details: CAII-A647 binding fluorescence, higher = more signal

{"Smiles str": "COC(=O)[C@@]1(Cc2ccc(OC)cc2)[C@H]2c3cc(C(=O)N(C)C)n(CCSCCO)c3C[C@H]2CN1C(=O)c1ccccc1", "composite z-score": 0.844}
{"Smiles str": "C=CCNC(=O)[C@H]1[C@@H]2C(=O)O[C@@H](c3ccccc3)[C@@H](c3ccccc3)N2[C@@H](c2ccc(OCCO)cc2)[C@]12C(=O)N(C(=O)OCCOC)c1ccc(C#CC3(O)CCCCCC3)cc12", "composite z-score": 0.615}
{"Smiles str": "[N-]=[N+]=Nc1ccccc1[C@@H]1OC(c2ccc(OCCCO)cc2)=N[C@]1(CCS(=O)(=O)c1ccccc1)C(=O)N1CCCCC1", "composite z-score": 0.625}
{"Smiles str": "C=CC[C@@]1(C(=O)OC)N=C(c2ccc(OCCCO)cc2)O[C@@H]1c1ccccc1CN=[N+]=[N-]", "composite z-score": 0.586}
{"Smiles str": "CC(C)CNC(=O)[C@@]1(C)c2ccccc2C(=O)N(C(C)C)[C@H]1c1ccc(CO)cc1", "composite z-score": 0.903}
{"Smiles str": "COc1ccc(C#Cc2ccc3c(c2)[C@]2(C(=O)N3)[C@H](C(=O)N3CCc4cc(OC)c(OC)cc4C3)[C@H]3C(=O)O[C@H](c4ccccc4)[C@H](c4ccccc4)N3[C@@H]2c2ccc(OCCO)cc2)cc1", "composite z-score": 0.136}

----------
Experiment: inhibition of PAO1 biofilm formation – strain PAO1, LB-PBS medium, absorbance 600 nm, primary screen (AID 1176); further: test concentration not given here
Conditions: P. aeruginosa PAO1 growth/biofilm, A600, 12 h; higher = more signal
Parameter: z-score. Scope: all listed entries.

{"Compound": "C=CC[C@]1(C(=O)O)N=C(c2ccc(OCCCO)cc2)O[C@H]1c1ccccc1CN=[N+]=[N-]", "z-score": -0.555}
{"Compound": "COC(=O)[C@@]1(Cc2ccccc2)[C@H]2c3cc(C(=O)N(C)C)n(Cc4ccccc4)c3C[C@H]2CN1C(=O)c1ccccc1", "z-score": 0.246}
{"Compound": "COc1ccc([Si](C)(C)[C@H]2[C@H](CC(=O)N(CCO)Cc3ccccc3)O[C@@]3(C(=O)N(Cc4cccc(N5C(=O)c6cccc7cccc5c67)c4)c4ccccc43)[C@@H]2C)cc1", "z-score": 1.98}
{"Compound": "CN1C(=O)C2C=CC(C(O)C=Cc3ccc([N+](=O)[O-])cc3)N(N3CCCCC3)C2C1=O (configuration not stated)", "z-score": 1.01}
{"Compound": "C=C(CCCC)C(=O)CC[C@H](OC(=O)c1ccccc1-c1ccccc1C(=O)O)c1ccc(CO)o1", "z-score": 0.497}
{"Compound": "Cc1ccccc1/C=C/C=O", "z-score": -0.0902}
{"Compound": "COCCOC(=O)N1C(=O)[C@@]2(c3cc(C#CC4=CCCCC4)ccc31)[C@H](C(=O)N1CCN(c3ncccn3)CC1)[C@H]1C(=O)O[C@H](c3ccccc3)[C@H](c3ccccc3)N1[C@@H]2c1ccc(OCCO)cc1", "z-score": 3.13}

----------
Parameter: z-score. Scope: all listed entries.
Experiment: basal CRE-LacZ reporter activity in PC12 – cell-based, unstimulated, primary screen (AID 1145)
Conditions: no forskolin, luminescence, 4.5 h, higher = more signal, called active from +8 up or from −8 down

{"Compound": "Cc1ccc(N2C(=O)c3ccccc3[C@@H](C(=O)NCC(C)C)[C@@H]2c2ccc(CO)cc2)nc1", "z-score": -0.295}
{"Compound": "CN1C(=O)C2C=CC(C(O)C(C)(C)C)N(Nc3ccccc3)C2C1=O (stereo not given)", "z-score": 0.24}
{"Compound": "COc1cc2c(cc1O)C(c1ccc(CN3CCCC3)cc1)N(Cc1sc3ccccc3c1Cl)CC2 (stereo not given)", "z-score": 0.416}
{"Compound": "O=S(=O)(NCCCO)c1ccc(Br)cc1", "z-score": -0.198}
{"Compound": "C=C(C(=O)CC[C@@H](OC(=O)c1cccnc1)c1ccc(CO)o1)C(C)C", "z-score": 0.48}
{"Compound": "CC(C)OC(=O)C1=CCC(c2cccc(Cl)c2)O1 (stereo not given)", "z-score": -0.471}
{"Compound": "CCCNC(=O)[C@@]1(C)c2ccccc2C(=O)N(Cc2cc(C(F)(F)F)cc(C(F)(F)F)c2)[C@H]1c1ccc(CO)cc1", "z-score": 0.0548}
{"Compound": "COCCOC(=O)N1C(=O)[C@@]2(c3ccccc31)[C@H](C(=O)N1CCCCCCC1)[C@H]1C(=O)O[C@H](c3ccccc3)[C@H](c3ccccc3)N1[C@@H]2c1ccccc1OCCO", "z-score": 0.0384}
{"Compound": "C=CCC(OC(C)=O)[C@@H]1[C@@H](N(Cc2cc3ccccc3o2)C(=O)c2ccc(-c3ccccc3)cc2)c2cc(OCCCO)ccc2N1C(=O)Cc1ccc2ccccc2c1 (stereo not given in full)", "z-score": 1.85}
{"Compound": "Cc1ccc(C(C)CC(O)C2C=CC3C(=O)NC(=O)C3N2Nc2ccccn2)o1 (stereo not given)", "z-score": -0.712}
{"Compound": "COc1ccc([Si](C)(C)[C@@H]2[C@@H](CC(=O)N3Cc4ccccc4C[C@H]3CO)O[C@]3(C(=O)N(Cc4cccc(N5C(=O)COc6ccccc65)c4)c4ccccc43)[C@H]2C)cc1", "z-score": 3.56}
{"Compound": "CC(C)C(CO)N1C(=O)[C@@H]2[C@H]3C(=O)OCC=C[C@H]3OC23C=CCN(c2ccc4ccccc4c2)C(=O)[C@@H]13 (stereo not given in full)", "z-score": 0.732}
{"Compound": "[N-]=[N+]=NCc1ccccc1C[C@]1(C(=O)NCCN2CCOCC2)N=C(c2ccc(OCCCO)cc2)O[C@H]1c1ccccc1CN=[N+]=[N-]", "z-score": 1.34}
{"Compound": "O=c1cccc(-c2ccc3ccccc3c2)o1", "z-score": 0.425}
{"Compound": "CCOC(=O)C[C@H]1[C@H](OC(=O)c2ccccc2-c2ccccc2)[C@@H](NC(=O)c2ccc(-c3ccccc3)cc2)c2cc(OCCCO)ccc2N1C(=O)c1ccccc1", "z-score": 3.85}
{"Compound": "O=C1NC(=O)C2C1C=CC(C(O)c1cccs1)N2Nc1ccccn1 (stereo not given)", "z-score": -0.712}
{"Compound": "COc1ccc([Si](C)(C)[C@@H]2[C@@H](CCn3cc([C@H](O)c4ccccc4)nn3)O[C@]3(C(=O)N(C)c4ccccc43)[C@H]2C)cc1", "z-score": 1.72}
{"Compound": "COc1ccc(C(=O)Nc2cccc(CN3C(=O)[C@@]4(O[C@@H](CCn5cc([C@H](O)c6ccccc6)nn5)[C@H]([Si](C)(C)c5ccc(OC)cc5)[C@H]4C)c4ccccc43)c2)cc1", "z-score": 0.833}
{"Compound": "CC(C)[C@H]1COC(=O)N1C(=O)[C@H]1[C@@H](c2ccccc2)N(c2ccccc2)O[C@@H]1C", "z-score": 0.493}
{"Compound": "C=C[C@H](C)[C@H](O)c1ccc(OCCO)cc1", "z-score": -0.272}
{"Compound": "COCCOC(=O)N1C(=O)[C@@]2(c3cc(C#CCC(C(=O)OC)C(=O)OC)ccc31)[C@H](c1ccc(OCCO)cc1)N1[C@H](c3ccccc3)[C@H](c3ccccc3)OC(=O)[C@H]1[C@@H]2C(=O)NC[C@H](O)c1ccccc1", "z-score": -1.56}
{"Compound": "C=CCC(OC(C)=O)[C@@H]1[C@@H](N(Cc2cc3ccccc3o2)C(=O)c2cccc3ccccc23)c2cc(OCCCO)ccc2N1C(=O)Cc1ccc(OC)cc1 (stereo not given in full)", "z-score": 0.279}
{"Compound": "[N-]=[N+]=NCc1ccccc1C[C@]1(C(N)=O)N=C(c2ccc(OCCCO)cc2)O[C@H]1c1ccccc1N=[N+]=[N-]", "z-score": -0.254}
{"Compound": "CC(C)C(=C=CC[C@H](O)c1ccccc1OCCO)CCO", "z-score": 2.14}
{"Compound": "C=C(COC)C(=O)CC[C@H](OC(=O)c1cccnc1)c1ccccc1OCCO", "z-score": 5.43}
{"Compound": "COCCOC(=O)N1C(=O)[C@@]2(c3cc(C#CC4=CCCCC4)ccc31)[C@H](c1ccc(OCCO)cc1)N1[C@H](c3ccccc3)[C@H](c3ccccc3)OC(=O)[C@H]1[C@@H]2C(=O)Nc1nc2ccccc2s1", "z-score": -1.16}
{"Compound": "CO[C@H]1O[C@H](CO)[C@@H](OC(=O)Nc2ccccc2-c2ccccc2)[C@H](OC(=O)Nc2ccccc2-c2ccccc2)[C@H]1OC(=O)Nc1ccccc1-c1ccccc1", "z-score": 1.65}
{"Compound": "O=C1O[C@H](c2ccccc2)[C@H](c2ccccc2)N2[C@H]1[C@@H](C(=O)N1CCCCCCC1)[C@]1(C(=O)Nc3ccc(C#CC4=CCCCC4)cc31)[C@H]2c1ccc(O)cc1", "z-score": -1.43}
{"Compound": "O=C1C2C=CC(C(O)C3CC=CCC3)N(n3cnnc3)C2C(=O)N1Cc1ccccc1 (stereo not given)", "z-score": 0.332}
{"Compound": "COCCCNC(=O)[C@@]1(Cc2ccccc2I)c2ccccc2C(=O)N(Cc2ccccc2)[C@H]1c1ccc(CO)cc1", "z-score": 0.145}
